molecular target: ryanodine receptor, isoform 1 (RyR1) (Oncorhynchus mykiss, UniProt A0A8C7UX14); assay type: binding, rainbow trout (Oncorhynchus mykiss); details: sigmoidal fit of enhanced [3H]Ry binding; PCB 0–20 μM; (−) inactive
Sequence (A0A8C7UX14 1-5031): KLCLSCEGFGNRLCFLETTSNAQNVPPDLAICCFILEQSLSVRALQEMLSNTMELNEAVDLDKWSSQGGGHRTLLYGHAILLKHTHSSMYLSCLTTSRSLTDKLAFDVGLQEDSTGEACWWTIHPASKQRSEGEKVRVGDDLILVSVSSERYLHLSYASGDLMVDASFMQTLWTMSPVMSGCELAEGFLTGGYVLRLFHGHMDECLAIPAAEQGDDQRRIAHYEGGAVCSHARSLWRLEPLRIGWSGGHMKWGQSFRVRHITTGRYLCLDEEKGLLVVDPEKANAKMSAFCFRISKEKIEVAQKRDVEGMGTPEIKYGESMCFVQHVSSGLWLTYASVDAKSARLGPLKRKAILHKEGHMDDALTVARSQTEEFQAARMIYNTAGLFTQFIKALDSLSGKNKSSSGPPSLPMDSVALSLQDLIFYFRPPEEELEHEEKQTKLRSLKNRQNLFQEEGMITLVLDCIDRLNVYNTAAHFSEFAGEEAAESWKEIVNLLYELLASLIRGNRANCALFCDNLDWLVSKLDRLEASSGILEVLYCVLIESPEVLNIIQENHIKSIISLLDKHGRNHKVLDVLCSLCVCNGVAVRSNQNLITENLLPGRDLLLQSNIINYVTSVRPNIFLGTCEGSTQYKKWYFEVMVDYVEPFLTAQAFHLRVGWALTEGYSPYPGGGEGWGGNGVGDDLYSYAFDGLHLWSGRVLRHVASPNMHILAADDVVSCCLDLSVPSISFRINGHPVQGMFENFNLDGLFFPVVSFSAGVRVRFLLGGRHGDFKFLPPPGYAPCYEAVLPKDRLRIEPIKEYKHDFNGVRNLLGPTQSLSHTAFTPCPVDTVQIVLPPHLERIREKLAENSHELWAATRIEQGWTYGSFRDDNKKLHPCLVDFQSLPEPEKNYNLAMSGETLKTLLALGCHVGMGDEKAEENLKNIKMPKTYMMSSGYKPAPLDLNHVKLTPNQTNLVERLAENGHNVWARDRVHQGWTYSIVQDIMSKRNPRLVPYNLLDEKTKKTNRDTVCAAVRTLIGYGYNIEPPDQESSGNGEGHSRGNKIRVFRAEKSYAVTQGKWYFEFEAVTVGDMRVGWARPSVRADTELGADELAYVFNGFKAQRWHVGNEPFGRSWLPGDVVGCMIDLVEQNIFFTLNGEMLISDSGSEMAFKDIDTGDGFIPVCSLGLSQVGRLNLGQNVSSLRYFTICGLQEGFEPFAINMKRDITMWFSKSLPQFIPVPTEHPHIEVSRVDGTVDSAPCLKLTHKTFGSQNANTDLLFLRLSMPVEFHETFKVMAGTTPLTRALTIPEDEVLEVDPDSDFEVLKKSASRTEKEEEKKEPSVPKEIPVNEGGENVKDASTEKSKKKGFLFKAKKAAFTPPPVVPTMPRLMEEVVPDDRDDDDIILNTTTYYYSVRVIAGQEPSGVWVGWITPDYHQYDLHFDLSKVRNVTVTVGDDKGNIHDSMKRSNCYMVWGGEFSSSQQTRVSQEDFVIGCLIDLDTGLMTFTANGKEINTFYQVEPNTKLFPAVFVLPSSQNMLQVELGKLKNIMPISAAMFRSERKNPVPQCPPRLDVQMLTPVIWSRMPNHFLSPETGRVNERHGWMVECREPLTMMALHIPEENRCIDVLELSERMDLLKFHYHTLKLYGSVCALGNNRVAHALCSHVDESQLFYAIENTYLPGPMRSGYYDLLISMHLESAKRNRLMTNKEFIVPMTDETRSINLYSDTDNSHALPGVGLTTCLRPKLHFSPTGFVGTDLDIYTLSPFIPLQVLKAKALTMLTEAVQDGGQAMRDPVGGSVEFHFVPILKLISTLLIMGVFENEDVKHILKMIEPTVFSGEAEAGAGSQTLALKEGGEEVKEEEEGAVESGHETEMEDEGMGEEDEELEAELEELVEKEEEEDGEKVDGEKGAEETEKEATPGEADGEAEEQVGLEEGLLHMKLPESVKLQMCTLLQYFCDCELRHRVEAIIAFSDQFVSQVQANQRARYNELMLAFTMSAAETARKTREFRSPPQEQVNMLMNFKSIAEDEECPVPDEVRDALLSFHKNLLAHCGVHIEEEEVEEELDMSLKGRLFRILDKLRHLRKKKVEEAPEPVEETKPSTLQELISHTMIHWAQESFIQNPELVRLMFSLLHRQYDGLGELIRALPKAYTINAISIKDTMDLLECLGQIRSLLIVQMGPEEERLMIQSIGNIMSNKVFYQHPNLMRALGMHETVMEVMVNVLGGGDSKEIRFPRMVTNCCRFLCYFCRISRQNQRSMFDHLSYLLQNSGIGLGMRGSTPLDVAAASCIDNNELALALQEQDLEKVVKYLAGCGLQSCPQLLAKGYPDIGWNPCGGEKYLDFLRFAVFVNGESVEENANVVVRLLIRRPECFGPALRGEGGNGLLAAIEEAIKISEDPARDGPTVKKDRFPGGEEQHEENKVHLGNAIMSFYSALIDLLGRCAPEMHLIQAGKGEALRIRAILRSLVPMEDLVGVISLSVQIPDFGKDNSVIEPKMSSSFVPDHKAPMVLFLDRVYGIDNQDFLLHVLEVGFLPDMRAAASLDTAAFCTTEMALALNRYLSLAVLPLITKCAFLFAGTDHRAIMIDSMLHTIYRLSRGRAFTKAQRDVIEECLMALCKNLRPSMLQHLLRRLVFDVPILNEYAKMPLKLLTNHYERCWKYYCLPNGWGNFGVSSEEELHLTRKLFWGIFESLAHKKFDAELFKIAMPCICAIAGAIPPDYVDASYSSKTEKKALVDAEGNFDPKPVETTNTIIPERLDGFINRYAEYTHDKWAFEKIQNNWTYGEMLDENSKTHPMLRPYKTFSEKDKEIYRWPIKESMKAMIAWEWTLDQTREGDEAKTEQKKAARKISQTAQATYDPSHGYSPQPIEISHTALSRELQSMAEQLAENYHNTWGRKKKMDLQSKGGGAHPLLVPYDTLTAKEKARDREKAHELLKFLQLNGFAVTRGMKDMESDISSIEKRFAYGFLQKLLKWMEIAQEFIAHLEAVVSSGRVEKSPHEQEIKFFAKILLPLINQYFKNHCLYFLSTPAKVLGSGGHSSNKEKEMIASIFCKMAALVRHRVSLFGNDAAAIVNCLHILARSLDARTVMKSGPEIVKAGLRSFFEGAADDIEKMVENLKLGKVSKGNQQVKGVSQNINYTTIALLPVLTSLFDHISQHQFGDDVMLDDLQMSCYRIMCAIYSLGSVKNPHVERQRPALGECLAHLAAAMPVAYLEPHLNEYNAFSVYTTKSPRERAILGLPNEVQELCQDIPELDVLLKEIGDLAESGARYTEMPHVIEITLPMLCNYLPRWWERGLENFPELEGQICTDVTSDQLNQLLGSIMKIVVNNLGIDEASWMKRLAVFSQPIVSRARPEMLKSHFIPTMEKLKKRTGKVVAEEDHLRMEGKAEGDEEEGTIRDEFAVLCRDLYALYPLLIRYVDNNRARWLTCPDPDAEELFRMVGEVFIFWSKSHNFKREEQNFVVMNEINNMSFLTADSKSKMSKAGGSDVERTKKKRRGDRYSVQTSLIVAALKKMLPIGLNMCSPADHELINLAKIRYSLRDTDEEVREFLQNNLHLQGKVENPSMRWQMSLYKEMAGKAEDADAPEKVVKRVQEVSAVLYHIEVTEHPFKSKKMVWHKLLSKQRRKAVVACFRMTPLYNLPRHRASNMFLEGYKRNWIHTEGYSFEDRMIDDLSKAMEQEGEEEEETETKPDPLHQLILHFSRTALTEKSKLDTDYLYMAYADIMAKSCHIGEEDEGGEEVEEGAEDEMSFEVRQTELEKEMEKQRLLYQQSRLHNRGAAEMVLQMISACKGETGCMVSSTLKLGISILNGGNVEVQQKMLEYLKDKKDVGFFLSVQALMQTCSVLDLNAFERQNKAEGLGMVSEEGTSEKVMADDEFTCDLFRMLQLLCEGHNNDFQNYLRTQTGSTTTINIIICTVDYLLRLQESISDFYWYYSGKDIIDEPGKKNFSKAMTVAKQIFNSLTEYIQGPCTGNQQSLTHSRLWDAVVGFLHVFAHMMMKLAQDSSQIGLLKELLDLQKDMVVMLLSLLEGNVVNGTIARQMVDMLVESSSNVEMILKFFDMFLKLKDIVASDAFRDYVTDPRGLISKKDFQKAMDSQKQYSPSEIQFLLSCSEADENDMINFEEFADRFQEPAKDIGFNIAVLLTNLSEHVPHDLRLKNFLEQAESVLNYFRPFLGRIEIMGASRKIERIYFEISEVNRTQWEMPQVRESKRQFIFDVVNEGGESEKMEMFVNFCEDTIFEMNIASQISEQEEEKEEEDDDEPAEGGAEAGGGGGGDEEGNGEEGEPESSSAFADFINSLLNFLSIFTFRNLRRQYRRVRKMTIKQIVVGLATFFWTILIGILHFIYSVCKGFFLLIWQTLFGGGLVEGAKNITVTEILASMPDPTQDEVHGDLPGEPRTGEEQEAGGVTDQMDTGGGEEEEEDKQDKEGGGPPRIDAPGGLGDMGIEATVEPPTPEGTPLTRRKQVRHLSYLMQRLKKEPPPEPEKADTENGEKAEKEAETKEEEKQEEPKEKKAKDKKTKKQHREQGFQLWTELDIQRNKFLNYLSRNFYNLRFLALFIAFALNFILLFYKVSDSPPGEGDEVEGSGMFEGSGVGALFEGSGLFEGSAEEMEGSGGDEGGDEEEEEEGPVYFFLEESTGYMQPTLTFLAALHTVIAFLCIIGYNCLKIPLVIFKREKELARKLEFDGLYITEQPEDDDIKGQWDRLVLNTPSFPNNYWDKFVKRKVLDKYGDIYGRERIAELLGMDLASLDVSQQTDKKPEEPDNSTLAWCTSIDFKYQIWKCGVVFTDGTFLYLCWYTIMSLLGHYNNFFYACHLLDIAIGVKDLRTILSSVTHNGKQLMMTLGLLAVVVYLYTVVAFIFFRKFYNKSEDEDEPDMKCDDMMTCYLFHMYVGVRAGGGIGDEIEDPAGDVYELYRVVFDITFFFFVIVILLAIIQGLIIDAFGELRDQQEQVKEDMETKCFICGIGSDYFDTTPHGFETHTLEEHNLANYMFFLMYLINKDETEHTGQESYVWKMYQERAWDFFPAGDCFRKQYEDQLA
measurement_kind: EC50 (nM)

> print(dat)
                                  smiles.str                                 tested.on  unit.abbreviation  qualifier  quantitative.result
 1               Clc1ccc(-c2ccc(Cl)cc2Cl)cc1  ryanodine receptor, isoform 1 (RyR1) (Oncorhynchus mykiss, UniProt A0A8C7UX14)                 nM          >                20000
 2       Clc1ccc(Cl)c(-c2cc(Cl)c(Cl)cc2Cl)c1  ryanodine receptor, isoform 1 (RyR1) (Oncorhynchus mykiss, UniProt A0A8C7UX14)                 nM          =                 1980
 3     Clc1ccc(-c2c(Cl)ccc(Cl)c2Cl)c(Cl)c1Cl  ryanodine receptor, isoform 1 (RyR1) (Oncorhynchus mykiss, UniProt A0A8C7UX14)                 nM          =                 1320
 4       Clc1ccc(Cl)c(-c2c(Cl)ccc(Cl)c2Cl)c1  ryanodine receptor, isoform 1 (RyR1) (Oncorhynchus mykiss, UniProt A0A8C7UX14)                 nM          =                 1060
 5           Clc1ccc(-c2ccc(Cl)c(Cl)c2)cc1Cl  ryanodine receptor, isoform 1 (RyR1) (Oncorhynchus mykiss, UniProt A0A8C7UX14)                 nM          >                20000
 6       Clc1ccc(-c2cc(Cl)c(Cl)cc2Cl)c(Cl)c1  ryanodine receptor, isoform 1 (RyR1) (Oncorhynchus mykiss, UniProt A0A8C7UX14)                 nM          =                 3590
 7               Clc1cccc(-c2cccc(Cl)c2Cl)c1  ryanodine receptor, isoform 1 (RyR1) (Oncorhynchus mykiss, UniProt A0A8C7UX14)                 nM          =                 1800
 8         Clc1ccc(-c2ccc(Cl)c(Cl)c2)c(Cl)c1  ryanodine receptor, isoform 1 (RyR1) (Oncorhynchus mykiss, UniProt A0A8C7UX14)                 nM          =                 1160
 9         Clc1ccc(-c2c(Cl)ccc(Cl)c2Cl)cc1Cl  ryanodine receptor, isoform 1 (RyR1) (Oncorhynchus mykiss, UniProt A0A8C7UX14)                 nM          =                 1080
10     Clc1ccc(Cl)c(-c2c(Cl)ccc(Cl)c2Cl)c1Cl  ryanodine receptor, isoform 1 (RyR1) (Oncorhynchus mykiss, UniProt A0A8C7UX14)                 nM          =                 1300
11  Clc1cc(-c2cc(Cl)c(Cl)c(Cl)c2Cl)c(Cl)c(Cl)c1Cl  ryanodine receptor, isoform 1 (RyR1) (Oncorhynchus mykiss, UniProt A0A8C7UX14)                 nM          =                 1270

Reference for the values: paper PMC3813431
